Origin of the recorded values: paper PMC4612778

The compounds below have reported CC50 for MT-4 cells.

compound | limit operator | CC50 / µM
CC1(C)O[C@H]1[C@H]1C[C@@H]([C@@H]2CC[C@]3(C)C4=CC[C@H]5C(C)(C)C(=O)CC[C@]5(C)[C@H]4CC[C@@]23C)[C@H](O)O1 [Compound 5, melianone] | > | 100
C/C=C(\C)C(=O)O[C@@H]1CC[C@]2(C)[C@H]3CC[C@@]4(C)[C@@H]([C@@H]5C[C@H]([C@@H]6OC6(C)C)O[C@H]5O)CC[C@]4(C)C3=CC[C@H]2C1(C)C [Compound 4, 3-α-tigloyl-melianol] | = | 27

* * *

- Tested on: HIV-1 IIIB
- method: microbe, parasite or virus in culture
- Type: cell-based, Human Immunodeficiency Virus type-1
- test settings: Human immunodeficiency virus 1, IIIB, MT4, read-out: EC50 HIV-1IIIB
Examples of compounds with documented EC50 follow.

compound | limit operator | EC50 / nM
COC(=O)[C@H](CCC=C(C)C)[C@@H]1[C@@H](O)C[C@]2(C)C3=CC[C@H]4C(C)(C)C(=O)CC[C@]4(C)[C@H]3CC[C@@]12C [Compound 2, methyl kulonate] | > | 35000
O=C1Nc2ccc(Cl)cc2[C@@](C#CC2CC2)(C(F)(F)F)O1 [Efavirenz, reference compound] | = | 2
